Ref: the Immune Epitope Database (IEDB)

Biological target: HLA-A*03:01
Experiment: IEDB peptide-MHC binding, purified MHC/direct/fluorescence; filed as Kd, often an IC50 or EC50 that approximates it; bounds were set here for any values at or beyond the usual limits of such assays
Settings: source organism: Vibrio vulnificus YJ016
Parameter: Kd

query: Consider the sequence shown here: IVAQGIAAL What is its recorded Kd?
result: ≥ 20 µM

----------
Biological target: HLA-B*15:42
Assay: IEDB peptide-MHC binding, purified MHC/competitive/fluorescence; filed as Kd, often an IC50 or EC50 that approximates it; bounds were set here for any values at or beyond the usual limits of such assays
Details: source organism: West Nile virus
Parameter: Kd

query: Consider the sequence shown here: ETTNWLWAF What is its recorded Kd?
result: ≥ 5 µM
